combination Emax values for the molecules below.
Test system: ST486 (Burkitt's Lymphoma)
Test: combination Emax (second highest fraction inhibited in the dose matrix, 72 h); higher = more inhibition; extreme values may be limits of the assay
Please reply with the number alone, leaving off any unit.

molecule	assay system	test result
CN(C)CCCOc1ccc(-c2ccc3ncc4c(c3c2)n(C2CCOCC2)c(=O)n4C)cn1 [AZD0156] + CCN(CCO)CCCOc1ccc2c(Nc3cc(CC(=O)Nc4cccc(F)c4)[nH]n3)ncnc2c1 [AZD2811] (first compound max 1 µM, 7x7, partner max 1 µM)	ST486 (Burkitt's Lymphoma)	0.913

Ask: Please give measured combination Emax of the following entry: NC1(C(=O)N[C@@H](CCO)c2ccc(Cl)cc2)CCN(c2ncnc3[nH]ccc23)CC1 [Capivasertib] + CCN(CCO)CCCOc1ccc2c(Nc3cc(CC(=O)Nc4cccc(F)c4)[nH]n3)ncnc2c1 [AZD2811] (first compound max 10 µM, 7x7, partner max 1 µM)
Reply: 0.834

Ask: Please give measured combination Emax of the following entry: Cc1cc2ncnn2cc1Nc1ncc2c(n1)n(C1CCOCC1)c(=O)n2C [AZD7648] + O=C(c1cc(Cc2n[nH]c(=O)c3ccccc23)ccc1F)N1CCN(C(=O)C2CC2)CC1 [Olaparib] (first compound max 10 µM, 7x7, partner max 10 µM)
Reply: 0.424

Hey, just so you know, these numbers are from the supplement of paper PMC11061612.
